measurementTarget: VCP (Homo sapiens)
Construct: purchased Antibodies-online
Sequence (P55072 whole entry, species assumed): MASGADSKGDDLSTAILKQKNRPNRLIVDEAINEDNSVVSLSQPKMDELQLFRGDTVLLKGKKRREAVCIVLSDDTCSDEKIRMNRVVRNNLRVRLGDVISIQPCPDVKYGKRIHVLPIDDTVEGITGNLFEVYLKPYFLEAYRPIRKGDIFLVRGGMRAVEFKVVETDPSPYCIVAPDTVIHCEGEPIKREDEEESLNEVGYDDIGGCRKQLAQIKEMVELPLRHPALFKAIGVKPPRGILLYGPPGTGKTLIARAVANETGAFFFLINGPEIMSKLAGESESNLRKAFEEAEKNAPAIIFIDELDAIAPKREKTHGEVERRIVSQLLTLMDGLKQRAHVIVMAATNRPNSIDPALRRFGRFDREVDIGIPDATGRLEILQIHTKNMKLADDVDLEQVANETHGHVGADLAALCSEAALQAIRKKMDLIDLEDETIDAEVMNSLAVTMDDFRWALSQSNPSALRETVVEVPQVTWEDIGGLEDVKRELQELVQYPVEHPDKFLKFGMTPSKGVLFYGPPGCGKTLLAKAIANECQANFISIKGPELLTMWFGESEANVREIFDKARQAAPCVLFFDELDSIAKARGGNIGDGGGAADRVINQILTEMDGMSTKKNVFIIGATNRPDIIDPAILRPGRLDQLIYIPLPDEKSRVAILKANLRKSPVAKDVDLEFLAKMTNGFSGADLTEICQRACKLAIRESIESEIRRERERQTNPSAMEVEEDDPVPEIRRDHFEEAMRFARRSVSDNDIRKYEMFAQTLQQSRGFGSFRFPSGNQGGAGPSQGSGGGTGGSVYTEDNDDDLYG
assayNotes: Bio-layer interferometry (BLItz) binding to VCP
conditionDescription: BLI, VCP
readoutKind: pKd
Hey, just a heads up that pKd is the negative log base 10 of the concentration in molar.

Q: Bench note: what pKd did peptide sequence HVLVMCAT (HV3) coupled to the cell penetrating, HIV-derived TAT peptide [HV3-TAT, reference compound] show?
Ans: 4.85

The reported measurements were obtained from patent US20240110004A1.
